test: Bidirectional Caco-2 permeability assay; assay type: in vitro ADME; conditions: human, Caco-2
# label = class 1 if efflux ratio at 90 min < 1 else class 0

Does the reported efflux ratio at 90 min of CCCCOC(C)(C)C(=O)Nc1ncnn2c([C@]3(C#N)O[C@H](COC(=O)CC4CCCC4)[C@@H](OC(=O)[C@@H](N)C(C)(C)C)[C@H]3O)ccc12 [Compound 71] stay below 1?
class 0

Below 1 on efflux ratio at 90 min? Entry CCCC(=O)Nc1ncnn2c([C@]3(C#N)O[C@H](COC(=O)CC4CCCCC4)[C@@H](OC(=O)[C@@H](N)C(C)(C)C)[C@H]3O)ccc12 [Compound 1]
class 0

Take the compound CCC(CC)C(=O)Nc1ncnn2c([C@]3(C#N)O[C@H](COC(=O)CC4CCCCCC4)[C@@H](OC(=O)[C@@H](N)C(C)(C)C)[C@H]3O)ccc12 [Compound 62] and say whether its efflux ratio at 90 min is less than 1.
class 1

Item CCCCOC(C)(C)C(=O)Nc1ncnn2c([C@]3(C#N)O[C@H](COC(=O)CC4CCCCCC4)[C@@H](OC(=O)[C@@H](N)C(C)(C)C)[C@H]3O)ccc12 [Compound 72] : efflux ratio at 90 min beneath 1, strictly?
class 0

Lab log: compare recorded efflux ratio at 90 min with 1; is it strictly lower for CC(C)NC(=O)Nc1ncnn2c([C@]3(C#N)O[C@H](COC(=O)CC4CCCCC4)[C@@H](OC(=O)[C@@H](N)C(C)(C)C)[C@H]3O)ccc12 [Compound 4] ?
class 0

Please indicate whether the reported efflux ratio at 90 min of CC(C)(C)[C@H](N)C(=O)OC[C@H]1O[C@@](C#N)(c2ccc3c(NC(=O)CC4CCCCC4)ncnn23)[C@H](O)[C@@H]1O [Compound 39] is strictly below 1.
class 0

Please indicate whether the reported efflux ratio at 90 min of CC(=O)OCOC(=O)Nc1ncnn2c([C@]3(C#N)O[C@H](COC(=O)CC4CCCCC4)[C@@H](OC(=O)[C@@H](N)C(C)(C)C)[C@H]3O)ccc12 [Compound 46] is strictly below 1.
class 1

Item CCCCC(=O)Nc1ncnn2c([C@]3(C#N)O[C@H](COC(=O)CC4CCCCCC4)[C@@H](OC(=O)[C@@H](N)C(C)(C)C)[C@H]3O)ccc12 [Compound 61] : efflux ratio at 90 min beneath 1, strictly?
class 1

Strictly below 1: is that where efflux ratio at 90 min of CCOC(C)(C)C(=O)Nc1ncnn2c([C@]3(C#N)O[C@H](COC(=O)CC4CCCCCC4)[C@@H](OC(=O)[C@@H](N)C(C)(C)C)[C@H]3O)ccc12 [Compound 67] sits?
class 1

Lab log: compare recorded efflux ratio at 90 min with 1; is it strictly lower for CCOC(C)(C)C(=O)Nc1ncnn2c([C@]3(C#N)O[C@H](COC(=O)CC4CCC4)[C@@H](OC(=O)[C@@H](N)C(C)(C)C)[C@H]3O)ccc12 [Compound 49] ?
class 1

Would you kindly verify if efflux ratio at 90 min of CCC(CC)C(=O)Nc1ncnn2c([C@]3(C#N)O[C@H](COC(=O)CC4CCCCC4)[C@@H](OC(=O)[C@@H](N)C(C)(C)C)[C@H]3O)ccc12 [Compound 2] is strictly less than 1?
class 0

In plain terms, does CCCCCC(=O)Nc1ncnn2c([C@]3(C#N)O[C@H](COC(=O)CC4CCC4)[C@@H](OC(=O)[C@@H](N)C(C)(C)C)[C@H]3O)ccc12 [Compound 48] come in under 1 for efflux ratio at 90 min?
class 0

Lab note: efflux ratio at 90 min threshold 1. Does this compound come in strictly under it? CCC(=O)O[C@H]1[C@@H](O)[C@](C#N)(c2ccc3c(NC(=O)OCOC(=O)C(C)(C)C)ncnn23)O[C@@H]1COC(=O)[C@@H](N)C(C)(C)C [Compound 40]
class 0

Does CCCCCC(=O)Nc1ncnn2c([C@]3(C#N)O[C@H](COC(=O)CC4CCCC4)[C@@H](OC(=O)[C@@H](N)C(C)(C)C)[C@H]3O)ccc12 [Compound 55] have efflux ratio at 90 min strictly under 1?
class 0

Take the compound COC(C)(C)C(=O)Nc1ncnn2c([C@]3(C#N)O[C@H](COC(=O)CC4CCCCC4)[C@@H](OC(=O)[C@H](N)C(C)(C)C)[C@H]3O)ccc12 [Compound 68] and say whether its efflux ratio at 90 min is less than 1.
class 0

Lab note: efflux ratio at 90 min threshold 1. Does this compound come in strictly under it? COC(C)(C)C(=O)Nc1ncnn2c([C@]3(C#N)O[C@H](COC(=O)CC4CCCCCC4)[C@@H](OC(=O)[C@@H](N)C(C)(C)C)[C@H]3O)ccc12 [Compound 63]
class 1

Regarding CCC(CC)C(=O)Nc1ncnn2c([C@]3(C#N)O[C@H](COC(=O)CC4CCCCCC4)[C@@H](OC(=O)[C@H](N)C(C)(C)C)[C@H]3O)ccc12 [Compound 77] , kindly confirm whether its efflux ratio at 90 min is beneath 1.
class 0

I wonder whether CC[C@@H](C)C(=O)Nc1ncnn2c([C@]3(C#N)O[C@H](COC(=O)CC4CCCCC4)[C@@H](OC(=O)[C@@H](N)C(C)(C)C)[C@H]3O)ccc12 [Compound 12] has efflux ratio at 90 min below 1. Can you tell?
class 0

Could you please tell me whether efflux ratio at 90 min recorded for CC(C)(C)[C@@H](N)C(=O)OC[C@H]1O[C@@](C#N)(c2ccc3c(N)ncnn23)[C@H](O)[C@@H]1OC(=O)CC1CCCCC1 [Compound 37] is less than 1?
class 0

Consider the compound CCOC(C)(C)C(=O)Nc1ncnn2c([C@]3(C#N)O[C@H](COC(=O)CC4CCCC4)[C@@H](OC(=O)[C@@H](N)C(C)(C)C)[C@H]3O)ccc12 [Compound 66] . Is its efflux ratio at 90 min strictly less than 1?
class 0

Strictly below 1 in efflux ratio at 90 min? CCC(CC)C(=O)Nc1ncnn2c([C@]3(C#N)O[C@H](COC(=O)CC4CCC4)[C@@H](OC(=O)[C@@H](N)C(C)(C)C)[C@H]3O)ccc12 [Compound 50]
class 1
